- Tested on: 786-0
- MEASUREMENT_DESCRIPTION: NCI tumour cell line growth inhibition, 48 h
Active and inactive are the calls of the source. Cut-off read from the data, not from the text of the source: active = GI50 up to about 1.1 µM and inactive = higher.
One label from this list, please: 1 (active), -1 (inactive)

# count of solved cases: 3
| COMPOUND | CLASS_ASSIGNMENT |
| --- | --- |
| CC[C@]12C=CCN3CCC4(c5cc([C@@]6(C(=O)OC)CC7CN(CCc8c6[nH]c6ccccc86)CC6CCCCC67)c(OC)cc5N(C)C4[C@](O)(C(=O)OC)C1OC(C)=O)[C@@H]32 (some centres undefined) | 1 |
| Oc1cc(O)c2c(c1)O[C@H](c1ccc(O)c(O)c1)[C@@H](O)C2 [CIANIDANOL] | -1 |
| C[C@@H](C[C@H]1OC(C)(C)O[C@@H]1C(C)(C)O)[C@H]1CC=C2[C@]3(C)[C@H](O)C[C@H]4C(C)(C)[C@H](O)CC[C@]4(C)[C@H]3CC[C@]21C | -1 |

Ask: Per the assay record, what outcome was assigned to O=C(CCc1cc(-c2ccccc2)nc(S)n1)N(Cc1ccccc1)Cc1ccccc1 ?
Reply: -1

Ask: Per the assay record, what outcome was assigned to COC[n+]1cc2cc(OC)c(OC)cc2c2ccc3cc(OC)c(OC)cc3c21 ?
Reply: -1

Ask: Per the assay record, what outcome was assigned to COC(=O)[C@]12CC[C@H]3CC[C@H]([C@H]31)[C@H](c1ccccc1)N2 ?
Reply: -1

Ask: Per the assay record, what outcome was assigned to COc1ccc([C@@]23CCC(=O)C[C@@H]2N(C)CC3)cc1OC ?
Reply: -1

Ask: Per the assay record, what outcome was assigned to NCCn1ccc(NC(c2ccccc2)(c2ccccc2)c2ccccc2)nc1=O ?
Reply: -1

Ask: Per the assay record, what outcome was assigned to O/N=C1/CCCCCC1NO (centres undefined) ?
Reply: -1

Ask: Per the assay record, what outcome was assigned to COc1ccc(CSc2nc3ccccc3nc2-c2cccs2)cc1 ?
Reply: -1

---

- Tested on: SNB-78
- MEASUREMENT_DESCRIPTION: NCI tumour cell line growth inhibition, 48 h
Active and inactive are the calls of the source. No stated cut-off is given here; in the data, active = GI50 up to about 1.1 µM and inactive = higher.
PARAMETER: GI50

Illustrative cases are given below, each with its answer.
| MOLECULE | ASSAY_SYSTEM | RECORDED_VALUE |
| --- | --- | --- |
| N#C/C(=C\c1ccc(O)c(O)c1)C(=O)NC1CCC(CC2CCC(NC(=O)/C(C#N)=C/c3ccc(O)c(O)c3)CC2)CC1 (stereo unspecified) | SNB-78 | 1.59 µM (inactive) |
| C(=C/c1nc2ccccc2o1)/c1ccc2c(c1)OCO2 | SNB-78 | 25.7 µM (inactive) |
| C#CCN(Cc1ccc2nc(-c3ccccc3)c(Cl)nc2c1)c1cc(OC)c(OC)c(OC)c1 | SNB-78 | > 100 µM (inactive) |

Item: CCC1=CCN(c2ccc(C)cc2)OC1c1ccc(OC)cc1 (stereo unspecified) | GI50: > 100 µM (inactive)

Item: CCOc1ccc(-c2oc(/C=N/NS(=O)(=O)c3ccc(C)cc3)c([N+](=O)[O-])c2-c2ccc(OCC)cc2)cc1 | GI50: 9.73 µM (inactive)

Item: C[C@@]1(Cc2ccccc2)C(=O)N2[C@@H](CO)C(c3ccccc3)O[C@]2(C)c2ccccc21 (stereo partly specified) | GI50: > 100 µM (inactive)
